molecular target: immobilized human serum albumin (Homo sapiens); construct: purchased Chiralpak (Chiraltech) 34712; test: Albumin binding: affinity chromatography on columns with immobilized human serum albumin (net retention time); details: isolated binders; HSA column 25° C., PBS pH 7.4/isopropanol gradient
Sequence (P02768 25-609): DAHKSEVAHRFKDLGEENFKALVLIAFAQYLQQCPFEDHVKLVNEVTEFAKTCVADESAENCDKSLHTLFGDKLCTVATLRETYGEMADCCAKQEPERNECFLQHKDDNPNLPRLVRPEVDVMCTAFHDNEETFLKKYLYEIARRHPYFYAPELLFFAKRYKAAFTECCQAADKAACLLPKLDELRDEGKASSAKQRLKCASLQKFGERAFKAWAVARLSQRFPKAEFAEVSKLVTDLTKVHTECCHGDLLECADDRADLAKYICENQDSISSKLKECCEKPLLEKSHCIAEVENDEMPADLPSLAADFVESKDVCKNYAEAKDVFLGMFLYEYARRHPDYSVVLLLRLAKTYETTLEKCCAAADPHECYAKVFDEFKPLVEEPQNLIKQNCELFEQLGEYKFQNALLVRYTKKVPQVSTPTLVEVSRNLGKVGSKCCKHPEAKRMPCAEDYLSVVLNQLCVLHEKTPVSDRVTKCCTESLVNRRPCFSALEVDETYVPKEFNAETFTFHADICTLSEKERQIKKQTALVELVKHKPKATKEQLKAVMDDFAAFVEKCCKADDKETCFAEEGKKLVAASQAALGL
measure_name: NRT [min] (net retention time on columns with immobilized human serum albumin)
Please state the figure in min; there is no need to write the unit.

Look over these answered cases.
* O=C(O)CCCCCCCCCCCCCCCc1ccc(S(=O)(=O)Nc2ccc(C(=O)NCCOCCOCC(=O)NCCOCCOCC(=O)O)cn2)cc1 | 15.47
* O=C(O)CCCCCCCCCCCCCc1cc(Oc2ccc(S(=O)(=O)Nc3ccc(C(=O)NCCOCCOCC(=O)NCCOCCOCC(=O)O)cn3)cc2)ccc1F | 15.55
* O=C(O)CCCCCCCc1ccc(CCOc2ccc(S(=O)(=O)Nc3ccc(C(=O)NCCOCCOCC(=O)NCCOCCOCC(=O)O)cn3)cc2)cc1 [Binder 46] | 14.48

Briefly, NRT [min] (net retention time on columns with immobilized human serum albumin) measured for "O=C(O)CCCCCCCCCCCOc1ccc(CCc2ccc(S(=O)(=O)Nc3ncc(C(=O)NCCOCCOCC(=O)NCCOCCOCC(=O)O)cn3)cc2)cc1" : 17.51
